Values compiled from patent US10961278B2.

Reported MIC values are given for each entry in this list.
- Test system: vancomycin-middle resistant Staphylococcus aureus Mu50 strain
- PROTOCOL_DESCRIPTION: In vitro antibacterial activity assay (MIC, CLSI dilution method)
- Format: cell-based
- CONDITION_DESCRIPTION: Staphylococcus aureus, 16 h, S. aureus Mu50, 37° C., read-out: MIC Mu50

{"COMPOUND": "CCCCCCCCCCNCCNC1(C)C[C@H](O[C@@H]2C(O)C(O)[C@@H](CO)O[C@H]2Oc2c3cc4cc2Oc2ccc(cc2Cl)[C@@H](O)[C@@H](NC(=O)[C@@H](CC(C)C)NC)C(=O)N[C@@H](CC(N)=O)C(=O)N[C@H]4C(=O)N[C@@H]2C(=O)N[C@H](C(=O)N[C@H](C(=O)O)c4cc(O)c(CNC5C(O)OC(CO)[C@H](O)[C@@H]5O)c(O)c4-c4cc2ccc4O)[C@H](O)c2ccc(c(Cl)c2)O3)O[C@@H](C)[C@H]1O (stereo partly drawn)", "MIC / µg/mL": 0.25}
{"COMPOUND": "CCCCCCCCCCNCCNC1(C)C[C@H](O[C@H]2C(Oc3c4cc5cc3Oc3ccc(cc3Cl)[C@@H](O)[C@@H](NC(=O)[C@@H](CC(C)C)NC)C(=O)N[C@@H](CC(N)=O)C(=O)N[C@H]5C(=O)N[C@H]3C(=O)N[C@H](C(=O)N[C@H](C(=O)O)c5cc(O)c(CNCCCNC(=O)[C@H](O)[C@@H](O)[C@H](O)[C@H](O)CO)c(O)c5-c5cc3ccc5O)[C@H](O)c3ccc(c(Cl)c3)O4)O[C@H](CO)C(O)C2O)OC(C)[C@H]1O (stereo partly drawn)", "MIC / µg/mL": 1}
{"COMPOUND": "CCCCCCCCCCNCCNC1(C)C[C@H](O[C@H]2C(Oc3c4cc5cc3Oc3ccc(cc3Cl)[C@@H](O)[C@@H](NC(=O)[C@@H](CC(C)C)NC)C(=O)N[C@@H](CC(N)=O)C(=O)N[C@H]5C(=O)N[C@H]3C(=O)N[C@H](C(=O)N[C@H](C(=O)O)c5cc(O)c(CNCCO[C@@H]6OC(CO)[C@H](O)C(O)C6O)c(O)c5-c5cc3ccc5O)[C@H](O)c3ccc(c(Cl)c3)O4)O[C@H](CO)C(O)C2O)OC(C)[C@H]1O (stereo partly drawn)", "MIC / µg/mL": 2}

----------
Reported MIC values are given for each entry in this list.
- Test system: vancomycin-sensitive Staphylococcus aureus Newman strain
- PROTOCOL_DESCRIPTION: In vitro antibacterial activity assay (MIC, CLSI dilution method)
- Format: cell-based
- CONDITION_DESCRIPTION: Staphylococcus aureus, NEWMAN, 16 h, S. aureus Newman, 37° C.

{"COMPOUND": "CN[C@H](CC(C)C)C(=O)N[C@H]1C(=O)N[C@@H](CC(N)=O)C(=O)N[C@H]2C(=O)N[C@H]3C(=O)N[C@H](C(=O)N[C@H](C(=O)O)c4cc(O)c(CNCCCNC(=O)[C@H](O)[C@@H](O)[C@H](O)[C@H](O)CO)c(O)c4-c4cc3ccc4O)[C@H](O)c3ccc(c(Cl)c3)Oc3cc2cc(c3OC2O[C@H](CO)C(O)C(O)[C@H]2O[C@@H]2CC(C)[C@@H](O)C(C)(NCc3ccc(OCc4cccc(-c5ccccc5)c4C)c(Cl)c3)C2)Oc2ccc(cc2Cl)[C@H]1O (some centres unmarked)", "MEASUREMENT_UNIT": "µg/mL", "LT_GT_EQ": "=", "MIC": 0.5}
{"COMPOUND": "CCCCCCCCCCNCCNC1(C)C[C@H](O[C@H]2C(Oc3c4cc5cc3Oc3ccc(cc3Cl)[C@@H](O)[C@@H](NC(=O)[C@@H](CC(C)C)NC)C(=O)N[C@@H](CC(N)=O)C(=O)N[C@H]5C(=O)N[C@H]3C(=O)N[C@H](C(=O)N[C@H](C(=O)O)c5cc(O)c(CNCCCNC(=O)[C@H](O)[C@@H](O)[C@H](O[C@@H]6OC(CO)[C@H](O)C(O)C6O)[C@H](O)CO)c(O)c5-c5cc3ccc5O)[C@H](O)c3ccc(c(Cl)c3)O4)O[C@H](CO)C(O)C2O)OC(C)[C@H]1O (some centres unmarked)", "MEASUREMENT_UNIT": "µg/mL", "LT_GT_EQ": "=", "MIC": 0.25}
{"COMPOUND": "CN[C@H](CC(C)C)C(=O)N[C@H]1C(=O)N[C@@H](CC(N)=O)C(=O)N[C@H]2C(=O)N[C@H]3C(=O)N[C@H](C(=O)N[C@H](C(=O)O)c4cc(O)c(CNCCCNC(=O)[C@H](O)[C@@H](O)[C@H](O)[C@H](O)CO)c(O)c4-c4cc3ccc4O)[C@H](O)c3ccc(c(Cl)c3)Oc3cc2cc(c3OC2O[C@H](CO)C(O)C(O)[C@H]2O[C@@H]2CC(C)[C@@H](O)C(C)(NCc3ccc(-c4ccc(C(F)(F)F)cc4)cc3)C2)Oc2ccc(cc2Cl)[C@H]1O (some centres unmarked)", "MEASUREMENT_UNIT": "µg/mL", "LT_GT_EQ": "≤", "MIC": 0.0625}
{"COMPOUND": "CCCCCCCCCCNCCNC1(C)C[C@H](O[C@H]2C(Oc3c4cc5cc3Oc3ccc(cc3Cl)[C@@H](O)[C@@H](NC(=O)[C@@H](CC(C)C)NC)C(=O)N[C@@H](CC(N)=O)C(=O)N[C@H]5C(=O)N[C@H]3C(=O)N[C@H](C(=O)N[C@H](C(=O)O)c5cc(O)c(CNCCO[C@@H]6OC(CO)[C@@H](O)C(O)C6NC(C)=O)c(O)c5-c5cc3ccc5O)[C@H](O)c3ccc(c(Cl)c3)O4)O[C@H](CO)C(O)C2O)OC(C)[C@H]1O (some centres unmarked)", "MEASUREMENT_UNIT": "µg/mL", "LT_GT_EQ": "=", "MIC": 4}
{"COMPOUND": "CCCCCCCCCCNCCNC1(C)C[C@H](O[C@H]2C(Oc3c4cc5cc3Oc3ccc(cc3Cl)[C@@H](O)[C@@H](NC(=O)[C@@H](CC(C)C)NC)C(=O)N[C@@H](CC(N)=O)C(=O)N[C@H]5C(=O)N[C@H]3C(=O)N[C@H](C(=O)N[C@H](C(=O)O)c5cc(O)c(CNCCO[C@@H]6OC(CO)[C@H](O)C(O)C6O)c(O)c5-c5cc3ccc5O)[C@H](O)c3ccc(c(Cl)c3)O4)O[C@H](CO)C(O)C2O)OC(C)[C@H]1O (some centres unmarked)", "MEASUREMENT_UNIT": "µg/mL", "LT_GT_EQ": "=", "MIC": 0.5}
